Molecular target: Vascular endothelial growth factor receptor 1 (Homo sapiens)
Conditions: at 1 µM
MEASURED PROPERTY: residual activity (%)

> print(dat)
                                         mol  measured.property  unit.descriptor  reported
 1  O=C1c2ccccc2-[n+]2ccc3c([nH]c4ccccc43)c21  residual activity                %        79
 2  NC(=O)c1ccc2[nH]c(-c3ccc(Oc4ccc(Cl)cc4)cc3)nc2c1  residual activity                %        82
 3  C[C@@H](N)[C@H]1CC[C@H](C(=O)Nc2ccncc2)CC1  residual activity                %       118
 4       CCN(CC)CCCCN1c2ccccc2Oc2ccc(Cl)cc21  residual activity                %       115
 5               Cc1cc2ncc(-c3ccccc3)nc2cc1C  residual activity                %        85
 6  CC#CC(=O)Nc1cc2c(Nc3ccc(F)c(Cl)c3)ncnc2cn1  residual activity                %        94
 7  COc1ccc(CNc2nc(N(CCO)CCO)nc3c2ncn3C(C)C)cc1  residual activity                %        88
 8  O=C(Nc1cccc(Nc2nccc(Nc3cccc(C(F)(F)F)c3)n2)c1)C1CC1  residual activity                %        59
 9   Nc1ccc2ncnc(NCCc3ccc(Oc4ccccc4)cc3)c2c1  residual activity                %        54
10       N#CC(C#N)=C(N)/C(C#N)=C/c1ccc(O)cc1  residual activity                %        96
11  CC[n+]1c(/C=C/N(C)c2ccccc2)n(-c2ccccc2)c2ccc(-c3nc4ccccc4s3)cc21  residual activity                %       105
12              Oc1c2ccccc2c2c3c(cccc13)N=N2  residual activity                %        26

From: ChEMBL document CHEMBL2218924
